Data origin, for the record: patent US20260001871A1

# Assayed Target: human MRGPRD (Homo sapiens, UniProt Q8TDS7)
# Sequence (Q8TDS7 whole entry): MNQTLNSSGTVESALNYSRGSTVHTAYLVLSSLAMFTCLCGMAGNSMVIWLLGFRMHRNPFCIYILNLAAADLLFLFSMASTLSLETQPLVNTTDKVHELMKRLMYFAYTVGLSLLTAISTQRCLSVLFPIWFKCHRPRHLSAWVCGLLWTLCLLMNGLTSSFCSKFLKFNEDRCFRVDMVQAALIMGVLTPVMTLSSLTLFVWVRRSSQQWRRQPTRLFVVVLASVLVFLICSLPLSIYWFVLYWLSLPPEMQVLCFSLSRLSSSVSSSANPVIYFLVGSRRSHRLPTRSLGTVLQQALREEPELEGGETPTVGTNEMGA
# Assay Name: MRGPRD antagonist activity, IP-One HTRF assay in CHO cells stably expressing human MRGPRD (versus 100 μM β-Alanine agonist)
Measured IC50 of individual entries

Cc1nn(C)c(C)c1-c1ccc(-n2nnc(C(=O)Nc3ccncc3)c2C2CC2)cc1C#N [Compound 7-250] :: 500 to 1000 nM
Cc1cc(NC(=O)c2nnn(-c3ccc(-c4ccc(C#N)cc4)c(F)c3)c2C2CC2)ccn1 [Compound 7-235] :: 100 to 500 nM
Cc1nn(C)c(C)c1-c1ccc(-n2nnc(C(=O)Nc3cccnc3)c2C(C)C)cc1 [Compound 17-29] :: 500 to 1000 nM
O=C(Nc1ccncc1)c1nnn(-c2ccc3ccccc3c2)c1C1CC1 [Compound 5-3] :: 500 to 1000 nM
O=C(Nc1ccncc1)c1nnn(-c2cccc(-c3ccccc3F)c2)c1C1CC1 [Compound 7-298] :: 1000 to 3000 nM
CC(NC(=O)c1nnn(-c2ccc(-c3ccc(C#N)cc3)cc2)c1C1CC1)c1ccn(C)n1 (stereo not shown) [Compound 15-10] :: > 3000 nM
CC(C)(C)n1cc(NC(=O)c2nnn(-c3ccc(-c4ccccc4)cc3)c2C2CC2)cn1 [Compound 14-2] :: > 3000 nM
CC(=O)c1ccc(-c2cccc(-n3nnc(C(=O)Nc4ccncc4)c3C3CC3)c2)s1 [Compound 7-265] :: 500 to 1000 nM

Q. Enter IC50 (test system human MRGPRD (Homo sapiens, UniProt Q8TDS7)) for CC(C)n1cc(-c2cc(-n3nnc(C(=O)Nc4ccncc4)c3C3CC3)ccc2F)cn1 [Compound 7-289]
A. 1000 to 3000 nM

Q. Enter IC50 (test system human MRGPRD (Homo sapiens, UniProt Q8TDS7)) for O=C(NC1(c2ccccc2)CCC1)c1nnn(-c2ccc(-c3ccccc3)cc2)c1C1CC1 [Compound 14-6]
A. > 3000 nM

====

# Assayed Target: UniProt:Q8TDS7
# Assay Name: MRGPRD antagonist activity, IP-One HTRF assay in CHO cells stably expressing human MRGPRD (versus 100 μM β-Alanine agonist)
Measured IC50 of individual entries

N#CCc1cccc(-c2ccc(-n3nnc(C(=O)Nc4ccncc4)c3C3CC3)cc2)c1 :: 0.1 to 0.5 µM

Q. Quick one: give measured IC50 for CCc1ccc(C2(NC(=O)c3nnn(-c4ccc(-c5c(C)nn(CC)c5C)cc4)c3C3CC3)CC2)cn1
A. 1 to 3 µM

Q. Quick one: give measured IC50 for CCn1cc(NC(=O)c2nnn(-c3ccc(-c4ccccc4)cc3)c2C2CC2)c(C#N)n1
A. > 3 µM

Q. Quick one: give measured IC50 for Cc1cc(NC(=O)c2nnn(-c3ccc(-c4cnn(Cc5ccccc5)c4)cc3)c2C2CC2)ccn1
A. < 0.1 µM

Q. Quick one: give measured IC50 for Cc1nn(C)c(C)c1-c1ccc(-n2nnc(C(=O)Nc3ccccn3)c2C(C)C)cc1
A. 0.1 to 0.5 µM

Q. Quick one: give measured IC50 for CN(C)c1ccccc1-c1ccc(-n2nnc(C(=O)Nc3ccncc3)c2C2CC2)cc1
A. 1 to 3 µM

====

# Assayed Target: human MRGPRD (Homo sapiens)
# Assay Name: MRGPRD antagonist activity, IP-One HTRF assay in CHO cells stably expressing human MRGPRD (versus 100 μM β-Alanine agonist)
pIC50: −log10 of the molar value.
Observable: pIC50

Cc1ccc(-n2nnc(C(=O)Nc3ccnc(C)c3)c2C2CC2)cc1 [Compound 1-4] :: 6.30 to 7.00

Q. Quick one: give measured pIC50 for O=C(Nc1ncnc2[nH]ncc12)c1nnn(-c2ccc(-c3ccccc3)cc2)c1C1CC1 [Compound 14-53]
A. 5.52 to 6.00

Q. Quick one: give measured pIC50 for O=C(Nc1ccncc1)c1nnn(-c2ccc(-c3cnn(C4CCC4)c3)cc2)c1C1CC1 [Compound 7-62]
A. 6.30 to 7.00

Q. Quick one: give measured pIC50 for Cc1ccc(-n2nnc(C(=O)Nc3ccncc3)c2C2CC2)cc1F [Compound 2-13]
A. < 5.52

====

Measured pIC50 of individual entries
# Assayed Target: human MRGPRD (Homo sapiens, UniProt Q8TDS7)
# Assay Name: MRGPRD antagonist activity, IP-One HTRF assay in CHO cells stably expressing human MRGPRD (versus 100 μM β-Alanine agonist)
pIC50: −log10 of the molar value.

NS(=O)(=O)c1cccc(-c2ccc(-n3nnc(C(=O)Nc4ccncc4)c3C3CC3)cc2)c1 :: 6.00 to 6.30

Q. Enter pIC50 (test system human MRGPRD (Homo sapiens, UniProt Q8TDS7)) for COc1ccccc1-c1cccc(-n2nnc(C(=O)Nc3ccncc3)c2C2CC2)c1
A. 5.52 to 6.00

Q. Enter pIC50 (test system human MRGPRD (Homo sapiens, UniProt Q8TDS7)) for Cc1nn(-c2ccccc2)c(C)c1-c1ccc(-n2nnc(C(=O)NC3(c4cccnc4)CC3)c2C2CC2)cc1
A. > 7.00

Q. Enter pIC50 (test system human MRGPRD (Homo sapiens, UniProt Q8TDS7)) for O=C(Nc1ccncc1)c1nnn(-c2ccc(C3CCCC3)cc2)c1C1CC1
A. 5.52 to 6.00

Q. Enter pIC50 (test system human MRGPRD (Homo sapiens, UniProt Q8TDS7)) for N#Cc1cccc(-c2ccc(-n3nnc(C(=O)Nc4ccncc4)c3C3CC3)cc2)c1
A. 6.00 to 6.30

Q. Enter pIC50 (test system human MRGPRD (Homo sapiens, UniProt Q8TDS7)) for Cc1cc(NC(=O)c2nnn(-c3ccc(-c4ccc(C#N)cc4)cc3F)c2C2CC2)ccn1
A. 6.30 to 7.00

Q. Enter pIC50 (test system human MRGPRD (Homo sapiens, UniProt Q8TDS7)) for O=C(NC1CC(F)(F)C1)c1nnn(-c2ccc(-c3ccccc3)cc2)c1C1CC1
A. 5.52 to 6.00

Q. Enter pIC50 (test system human MRGPRD (Homo sapiens, UniProt Q8TDS7)) for CC(=O)c1ccc(-c2ccc(-n3nnc(C(=O)Nc4ccncc4)c3C3CC3)cc2)c(F)c1
A. 6.30 to 7.00

====

# Assayed Target: human MRGPRD (Homo sapiens)
# Assay Name: MRGPRD antagonist activity, IP-One HTRF assay in CHO cells stably expressing human MRGPRD (versus 100 μM β-Alanine agonist)
# Type: cell-based
Measured IC50 of individual entries

NS(=O)(=O)c1ccccc1-c1ccc(-n2nnc(C(=O)Nc3ccncc3)c2C2CC2)cc1 [Compound 7-197] :: 1 to 3 µM
Cn1ncc(NC(=O)c2nnn(-c3ccc(-c4ccccc4)cc3)c2C2CC2)c1Cl [Compound 14-10] :: > 3 µM
Cc1cc(-c2ccc(C#N)cc2)ccc1-n1nnc(C(=O)Nc2ccncc2)c1C1CC1 [Compound 7-230] :: 0.1 to 0.5 µM

Q. Quick one: give measured IC50 for CCn1nc(C)c(-c2ccc(-n3nnc(C(=O)NCc4cnccc4C)c3C3CC3)cc2)c1C [Compound 9-23]
A. 0.1 to 0.5 µM

====

Measured IC50 of individual entries
# Assayed Target: human MRGPRD (Homo sapiens)
# Assay Name: MRGPRD antagonist activity, IP-One HTRF assay in CHO cells stably expressing human MRGPRD (versus 100 μM β-Alanine agonist)
# Experimental: Chinese Hamster Ovary (CHO) cells stably expressing human MRGPRD (Eurofins, San Diego CA) were plated in a 384-well plate at 20,000 cells per well in 12 μL of Optimem (Fisher Scientific 11-058-021). Plates were kept in the incubator at 37° C. overnight. […] Assay plates were read on either a Molecular Devices SpectraMax iD5 plate reader or a BMG ClarioStar plate reader. The HTRF ratio was calculated form the raw data and graphed using GraphPad Prism to calculate IC50 values. […]

O=C(Nc1ccnc(C(F)F)c1)c1nnn(-c2ccc(-c3ccccc3)cc2)c1C1CC1 [Compound 14-22] :: 500 to 1000 nM
COc1cc(-c2c(C)nn(C)c2C)ccc1-n1nnc(C(=O)NCc2ccc(C)nc2)c1C1CC1 [Compound 21-2] :: 100 to 500 nM
Cc1n[nH]c2cccc(NC(=O)c3nnn(-c4ccc(-c5ccccc5)cc4)c3C3CC3)c12 [Compound 14-61] :: 1000 to 3000 nM
Cc1cc(NC(=O)c2nnn(-c3ccc(-c4ccc(C#N)cc4)cc3)c2C2CC2)ccn1 [Compound 7-61] :: 100 to 500 nM
Cc1ccc(NC(=O)c2nnn(-c3ccc(-c4ccc(C#N)cc4C)cc3)c2C2CC2)cn1 [Compound 9-30] :: 1000 to 3000 nM

Q. Quick one: give measured IC50 for N#Cc1c[nH]nc1-c1ccc(-n2nnc(C(=O)Nc3ccncc3)c2C2CC2)cc1 [Compound 7-143]
A. 500 to 1000 nM

Q. Quick one: give measured IC50 for Cc1cc(NC(=O)c2nnn(-c3ccc(-c4c(C)nn(C)c4F)cc3)c2C2CC2)ccn1 [Compound 7-13]
A. < 100 nM

Q. Quick one: give measured IC50 for CCn1cc(-c2ccc(-n3nnc(C(=O)Nc4ccncc4)c3C3CC3)cc2)cn1 [Compound 7-97]
A. 100 to 500 nM
